# test.method.notes: Toxicity liver stage against HepG2, at 10uM
# Assay type: cell-based
# Parameters: test concentration 10 uM, cell line HepG2-A16-CD81EGFP
# test.conditions: human, HepG2-A16-CD81EGFP cells; read-out: INHIBITION
observed.property: cytotoxicity at 10 µM (%)

molecule: O=C(N1CCCC1)N1Cc2nccn2CC(CN2CCCC2)C1 (configuration not stated)
reading.unit: %
assay.result: 1.52

molecule: OCC1CCCN1c1cc(NCc2cccnc2)ncn1 (configuration not stated)
reading.unit: %
assay.result: -16.6

molecule: COCCOC(=O)N1C[C@@H]2CC[C@H]1CN(C1Cc3ccccc3C1)C2
reading.unit: %
assay.result: 1.06

molecule: CCCn1nccc1C(=O)N1CCN(C(=O)C2CC2)[C@@H]2CS(=O)(=O)C[C@@H]21
reading.unit: %
assay.result: 4.05

molecule: O=S(=O)(CCc1ccccc1)Nc1cc(Cl)ccn1
reading.unit: %
assay.result: -4.81

molecule: COc1ccc(CC(=O)N2CCC(Nc3ccc(C)nn3)CC2)cc1
reading.unit: %
assay.result: -5.34

molecule: O=C(CN1CC(c2nc(-c3ccco3)no2)C1)NCCc1ccccc1
reading.unit: %
assay.result: -9.54

molecule: C=Cc1ccc(CN2CCCC3(CNC(=O)c4ccccc4O3)C2)cc1 (configuration not stated)
reading.unit: %
assay.result: -22.6

molecule: CN(C)C(=O)CCNC(=O)NCc1ccc(Br)cc1Cl
reading.unit: %
assay.result: 2.96

molecule: Cn1c(CN2CCOC(Cn3cncn3)C2)nc2ccccc21 (configuration not stated)
reading.unit: %
assay.result: -4.76

molecule: Cc1ccc(CN2CCn3c(CNC(=O)c4cccn4C)cnc3C2)s1
reading.unit: %
assay.result: 1.82

molecule: Brc1cccc(-c2nnc(CNCCn3cccn3)o2)c1
reading.unit: %
assay.result: -9.59

molecule: CCCC(=O)N(C)C(c1cccc(F)c1)c1ccccn1 (configuration not stated)
reading.unit: %
assay.result: -2.51

molecule: O=C(C1CNCCN1C(=O)CCOc1ccccc1)N1CCOCC1 (configuration not stated)
reading.unit: %
assay.result: 0.311

molecule: CN(Cc1ccsc1)C(=O)C1CCC(=O)N(Cc2ccccn2)C1 (configuration not stated)
reading.unit: %
assay.result: 0.0228

molecule: COc1cc(C(=O)Nc2cn[nH]c2)ccc1C
reading.unit: %
assay.result: -7.33

molecule: COc1ccc2nnc(CCCC(=O)NCc3ccccc3F)n2n1
reading.unit: %
assay.result: -0.524

molecule: CC(=O)N1CCO[C@@H]2CN(C(=O)c3cc(C)oc3C)CC[C@@H]2C1
reading.unit: %
assay.result: 10.5

molecule: Cc1n[nH]c(CCC(=O)N2CCOC(Cc3ccc(F)cc3)C2)c1C (configuration not stated)
reading.unit: %
assay.result: -40.4

molecule: O=C(N1CCCC1)C12CC(CN1Cc1nccs1)C2
reading.unit: %
assay.result: -11.5

molecule: O=C(NCc1ccnc(-n2cccn2)c1)C1CC(=O)N(CC2CC2)C1 (configuration not stated)
reading.unit: %
assay.result: 5.48

molecule: CSCCCN1CCn2nc(CNC(=O)N(C)C)cc2C1
reading.unit: %
assay.result: -2.66

molecule: Cc1cc(C)n(-c2cc(N3CCN(C(=O)C(C)(C)C)CC3)nc(C)n2)n1
reading.unit: %
assay.result: 37.1

molecule: Cc1cccnc1CNCC1(O)CCCN(CC2CCCCC2)C1=O (configuration not stated)
reading.unit: %
assay.result: -2.37

molecule: Cc1ccc(NC2CCN(C(=O)CCNS(C)(=O)=O)CC2)nn1
reading.unit: %
assay.result: -5.58

molecule: COCC1c2nnn(CC3CC3)c2CCN1C(=O)c1cc(C)[nH]c1C (configuration not stated)
reading.unit: %
assay.result: -140

molecule: CC(C)c1ncncc1C(=O)NCCN1CCCCC1C (configuration not stated)
reading.unit: %
assay.result: -6.06

molecule: Cc1ccoc1C(=O)NC1CCN(Cc2csc3c(F)cccc23)CC1
reading.unit: %
assay.result: 1.13

molecule: CC(C)c1nnc2n1CCN(C(=O)c1cccc(C(F)(F)F)c1)C2
reading.unit: %
assay.result: 4.09

molecule: COC(=O)C1CCCN1C(=O)c1ccc(Cl)cc1F (configuration not stated)
reading.unit: %
assay.result: -7.7

molecule: CCc1ccc(CN2C[C@@H](c3nc(C)no3)C[C@H]3OCC[C@H]32)o1
reading.unit: %
assay.result: -75.8

molecule: CC1(C)[C@@H]2CC=C(CN3CCCn4nc(C(=O)NCCO)cc4C3)[C@H]1C2
reading.unit: %
assay.result: -40.3

molecule: COCC(C)NC(=O)CN1CCC2(CC1)OCCO2 (configuration not stated)
reading.unit: %
assay.result: 7.3

molecule: Cc1cc(C)n(CC(=O)Nc2cc(-c3ccncc3)[nH]n2)n1
reading.unit: %
assay.result: -5.77

molecule: CC(C)OCCC(=O)NCCc1csc(N2CCCC2)n1
reading.unit: %
assay.result: -12.9

molecule: Cc1csc(CNC(=O)NCC2(c3ccc4c(c3)OCO4)CC2)n1
reading.unit: %
assay.result: 0.0902

molecule: CN(Cc1cccc(-n2cccn2)c1)Cc1c[nH]cn1
reading.unit: %
assay.result: 5.67

molecule: CS(=O)(=O)CCCNC(=O)NC1CC(c2cccc(Cl)c2)C1 (configuration not stated)
reading.unit: %
assay.result: -3.17

molecule: COc1c(CNCc2cccc(Cn3ccnc3)c2)c(C)nn1C
reading.unit: %
assay.result: 5.61

molecule: O=C(NCCCNC(=O)c1cccc(O)c1)NCc1ccccc1F
reading.unit: %
assay.result: -6.42

molecule: Cc1nonc1-c1nc(C(C)C)nn1-c1ccc2c(c1)OCO2
reading.unit: %
assay.result: -6.9

molecule: Cc1n[nH]c(C)c1CCC(=O)N1CCc2c(nc[nH]c2=O)C1
reading.unit: %
assay.result: -5

molecule: CCCN1C[C@@H]2CC[C@H]1CN(Cc1cccc(O)c1)C2
reading.unit: %
assay.result: -122

molecule: C[C@H](NC(=O)OC(C)(C)C)c1nnc(S(=O)(=O)Cc2cccc(F)c2)o1
reading.unit: %
assay.result: -6.91

molecule: NC(=O)NC(=O)CCN1CCN(c2nccs2)CC1
reading.unit: %
assay.result: -33.6

molecule: COC1CCCOC12CCN(C(=O)c1ccc3[nH]nnc3c1)CC2 (configuration not stated)
reading.unit: %
assay.result: -3.97

molecule: Cc1nn(C)c(=O)c2nn(-c3ccc(Cl)cc3)c(C)c12
reading.unit: %
assay.result: -4.18

====

# test.method.notes: Toxicity liver stage against HepG2, at 10uM
# Format: cell-based
# Parameters: test concentration 10 uM, cell line HepG2-A16-CD81EGFP
# test.conditions: human, HepG2-A16-CD81EGFP cells; read-out: INHIBITION
# cytotoxicity at 10 µM values compiled below
observed.property: cytotoxicity at 10 µM (%)

compound: CCn1cnnc1C1CCN(C(=O)c2cnc(C)s2)CC1
reading.unit: %
assay.result: -8.45
--
compound: Cn1cc(CNc2ncnc3c2CCN(Cc2ccsc2)CC3)cn1
reading.unit: %
assay.result: 15.5
--
compound: O=C(NCCn1ccc(-c2ccncc2)n1)c1ccc2c(c1)OCO2
reading.unit: %
assay.result: 6.03
--
compound: Cc1csc(CN2CC[C@H]3C(=O)N(c4cccnc4)CCO[C@H]3C2)n1
reading.unit: %
assay.result: 6.31
--
compound: Cc1cccc(CN2CCC3(CC2)COC(COCC2CC2)C3)n1 (stereo unspecified)
reading.unit: %
assay.result: -108
--
compound: O=C1O[C@@H]2CN(CCc3ccccc3)C[C@@H]2N1CCCN1CCOCC1
reading.unit: %
assay.result: -3.2

====

# test.method.notes: Toxicity liver stage against HepG2, at 10uM
# Type: cell-based
# Set-up: test concentration 10 uM, cell line HepG2-A16-CD81EGFP
# test.conditions: human, HepG2-A16-CD81EGFP cells; read-out: INHIBITION

compound: O=C1COC2(CCN(Cc3ccco3)CC2)CN1Cc1cccnc1
cytotoxicity at 10 µM, %: -4.25
--
compound: Cc1cccc(CCC(=O)N2CCOCC2c2c(C)n[nH]c2C)c1 (configuration not stated)
cytotoxicity at 10 µM, %: -13.3
--
compound: COC1CCN(C(=O)Cc2csc(-c3ccccc3)n2)CC1
cytotoxicity at 10 µM, %: -6.75
--
compound: O=C(c1cccs1)N1CCN(Cc2cc(=O)c3ccccc3[nH]2)CC1
cytotoxicity at 10 µM, %: -2.93
--
compound: COCc1noc(Cn2ncn3cccc3c2=O)n1
cytotoxicity at 10 µM, %: -5.56
--
compound: CNS(=O)(=O)c1cccc(CNCc2ccsc2)c1
cytotoxicity at 10 µM, %: -2.54
--
compound: CN1CCN(C(=O)C2SCCc3sccc32)CC1 (configuration not stated)
cytotoxicity at 10 µM, %: -12.6
--
compound: O=C(Cc1cccnc1)N1CCCC2(CCN(CC3CCOCC3)C2)C1 (configuration not stated)
cytotoxicity at 10 µM, %: 2
--
compound: COc1ncccc1C1CC(=O)NCc2nc3ccccn3c21 (configuration not stated)
cytotoxicity at 10 µM, %: -5.72
--
compound: CS(=O)(=O)CCC(=O)N1C[C@H]2CC[C@@H](C1)N(Cc1ccccc1)C2=O
cytotoxicity at 10 µM, %: -0.0119
--
compound: CN(C)C(=O)c1ccc2c(c1)N(C)C(CC(=O)NCc1ccno1)CO2 (configuration not stated)
cytotoxicity at 10 µM, %: 12.4
--
compound: CC(C)(O)CCc1cccc(C(=O)NCC2COCCO2)c1 (configuration not stated)
cytotoxicity at 10 µM, %: -6.38
